Assay: qHTS for Inhibitors of human tyrosyl-DNA phosphodiesterase 1 (TDP1): qHTS in cells in absence of CPT; further: nearly all actives have a fitted effect of over 55% in size
Details: DT40 Tdp1-/- hTDP1 cells, no CPT, ATP luminescence, 48 h
Screen size: about 420,000 compounds; about 64,000 (15%) were called active. Not shown: some 27% with an inconclusive outcome. The call rests on the fitted dose curve; in most records, active means well fitted inhibition curve with a large enough effect; inconclusive means small, poorly fitted or top-dose-only effect; inactive means flat fitted curve, though single readings scatter. Only a sample is shown.
Please answer using one outcome listed in Yes = active, No = inactive

{"molecule": "CCOC(=O)CSC1=N/C(=C/c2ccc(-n3cncn3)cc2)C(=O)N1C(C)=O", "labelValue": "Yes"}
{"molecule": "CCCC(=O)N1CCC1(C)C(=O)Nc1ccc(-n2cncn2)cc1 (configuration not stated)", "labelValue": "No"}

**Query** Test call, this molecule: `O=C(c1ccc(Cl)cc1)n1nc(-c2cccnc2)nc1NCc1ccc(F)cc1`
**Result** No

**Query** Test call, this molecule: `CCN(Cc1ccncc1)C(=O)[C@@H](CO)c1ccccc1`
**Result** No

**Query** Test call, this molecule: `Cc1ccc(-c2ccc(CCC(=O)O)n2-c2ccc(C(N)=O)cc2)cc1`
**Result** No

**Query** Test call, this molecule: `CN1CCC(OC(=O)COc2ccc(Cl)cc2Cl)CC1`
**Result** No

**Query** Test call, this molecule: CNC(=O)NC(=O)CSc1nnc(-c2ccc(F)cc2)n1CC1CCCO1 (configuration not stated)
**Result** No

**Query** Test call, this molecule: `C=CC(=O)Nc1ccc(Nc2ccnc(Nc3ccc(N4CCN(C)CC4)cc3)n2)cc1`
**Result** No

**Query** Test call, this molecule: `CCCn1c(=O)c2[nH]c(C3CCCC3)nc2n(CCC)c1=O`
**Result** No

**Query** Test call, this molecule: `COc1cc(=O)n2c(c1C(=O)N(C)Cc1nonc1C)CCN(C(=O)c1ccc(C)cc1C)CC2`
**Result** No

**Query** Test call, this molecule: `O=C1Nc2cc(Cl)c(Cl)cc2N(O)N1c1ccccc1Cl`
**Result** No

**Query** Test call, this molecule: COc1cccc(C(=O)N2CCC(n3nccc3NC(=O)C3CCOC3)CC2)c1 (configuration not stated)
**Result** No
